experiment: viability of PTEN-null HCT116 cells – cell-based, HCT116 clonal line, CellTiter-Glo, pilot screen (AID 824); settings: HCT116 PTEN-deleted viability, 60 h, at 10 µM;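 further: 0% = 20 µM Hyamine control and 100% = vehicle cell control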
Results filed as inconclusive are left out. The source made the active and inactive calls.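 How the source made its calls: active means viability at or below 27.92% in each of two runs, the all-compound median minus 4 SD; inconclusive means no clear call, values can overlap the other calls; inactive means the rest.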
Your response should consist of one outcome taken from 1.0 = active, 0.0 = inactive

These solved cases illustrate the format of a correct answer.
- Molecule: "CC(=O)Nc1nnc(SCC(=O)NCC2CCCO2)s1 (stereo not drawn)"
  Class: 0.0
- Molecule: "Cc1ccc(C2N(c3ccc(F)cc3)C(=O)C3CCCN32)cc1 (stereo not drawn)"
  Class: 0.0
- Molecule: "Oc1ccc(Cl)cc1-c1cc(-c2ccccc2)n[nH]1"
  Class: 1.0
- Molecule: "Cc1ccc2c(c1)C(c1ccccc1)N(C(=O)c1ccc(Br)o1)CC(=O)N2 (stereo not drawn)"
  Class: 0.0
- Molecule: "O=C(NCCSCc1ccco1)c1ccc(CN2CCOCC2)cc1"
  Class: 0.0

Q: Assay outcome for Cn1c(=O)[nH]c(=O)c2[nH]c(CN3CCN(Cc4ccccc4)CC3)nc21 : what was it?
Result: 0.0

Q: Assay outcome for CCOc1cc(C2NC(=O)NC(O)(C(F)(F)F)C2C(=O)c2ccccc2)ccc1OC (stereo not drawn) : what was it?
Result: 0.0

# credit: PubChem BioAssay
